tested on: Staphylococcus aureus; experiment: In vitro antibacterial activity against methicillin susceptible Staphylococcus aureus UC 9213 (MSSA); format: functional
Field 'label' (enum: y / n). Set to y when MIC is strictly under 1 µg/mL; else n.

CC(=O)NC[C@H]1CN(c2ccc(-c3nnc(CS(C)(=O)=O)s3)c(F)c2)C(=O)O1 :: n
COCc1nnc(-c2ccc(N3C[C@H](CNC(C)=O)OC3=O)cc2F)s1 :: n
C/C(S)=N/C[C@H]1CN(c2ccc(-c3nnc(CS(C)(=O)=O)s3)c(F)c2)C(=O)O1 :: y
CC(=O)NC[C@H]1CN(c2ccc(-c3nnc(C(N)=O)s3)c(F)c2)C(=O)O1 :: y

Bench note: check whether CNCc1nnc(-c2ccc(N3C[C@H](C/N=C(/C)S)OC3=O)cc2F)s1 shows MIC below 1 µg/mL
y

* * *

test: Clearance in rat; format: ADME, organism-based; conditions: in vivo
MEASUREMENT_LABEL: clearance (mL/min/kg)
Express the result in mL/min/kg but write the number alone.

I have this compound here, C/C(S)=N/C[C@H]1CN(c2ccc(-c3nnc(CN)s3)c(F)c2)C(=O)O1 , and I need its recorded clearance.
34.3

* * *

assay: Bioavailability in rat; type: ADME, organism-based; conditions: in vivo
MEASUREMENT_LABEL: bioavailability (%)
Express it in %; write the number only.

Reported bioavailability, molecule C/C(S)=N/C[C@H]1CN(c2ccc(-c3nnc(CN)s3)c(F)c2)C(=O)O1 : ____
14

* * *

Each entry below lists one item and its recorded MIC value.
test system: Enterococcus faecalis; experiment: In vitro antibacterial activity against vancomycin resistant Enterococcus faecalis UC 9217 (VREA); type: functional
Dear colleague, please return just the value in µg/mL, with no unit written.

CC(=O)NC[C@H]1CN(c2ccc(-c3nnc(CC(N)=O)s3)c(F)c2)C(=O)O1 :: 2
CCOC(=O)c1nnc(-c2ccc(N3C[C@H](CNC(C)=O)OC3=O)cc2F)s1 :: 8

Could you share which MIC value was measured for CC(=O)CCc1nnc(-c2ccc(N3C[C@H](CNC(C)=O)OC3=O)cc2F)s1 ?
0.5

* * *

tested on: Staphylococcus aureus; assay: In vitro antibacterial activity against methicillin susceptible Staphylococcus aureus UC 9213 (MSSA); format: functional
Decision: MIC beneath 4 µg/mL gives t; MIC meeting or exceeding 4 µg/mL gives f.

CC(=O)NC[C@H]1CN(c2ccc(-c3nnc(COC(C)=O)s3)c(F)c2)C(=O)O1 :: t
CC(=O)NC[C@H]1CN(c2ccc(-c3nnc(CN)s3)c(F)c2)C(=O)O1 :: f
CC(=O)NC[C@H]1CN(c2ccc(-c3nnc(CC/C(C)=N/O)s3)c(F)c2)C(=O)O1 :: t
CCOC(=O)c1nnc(-c2ccc(N3C[C@H](CNC(C)=O)OC3=O)cc2F)s1 :: f
C/C(S)=N/C[C@H]1CN(c2ccc(-c3nnc(CN)s3)c(F)c2)C(=O)O1 :: t

Determine whether this compound shows MIC lower than 4 µg/mL (ties excluded): CC(=O)NC[C@H]1CN(c2ccc(-c3nnc(C[S+](C)[O-])s3)c(F)c2)C(=O)O1 (stereo not given in full)
f

Try CC(=O)NC[C@H]1CN(c2ccc(-c3nnc(C)s3)c(F)c2)C(=O)O1 next.
t

# repeat for C/C(S)=N/C[C@H]1CN(c2ccc(-c3nncs3)c(F)c2)C(=O)O1
t

Cited source for all entries: ChEMBL document CHEMBL1136455
